src = patent EP0495091B1

- target.or.test.system: NBTI-specific adenosine transport site (Homo sapiens)
- Construct: incubated for 30 minutes with 0.5 mg neuronal membrane protein together with 0.5 nM [^3H]-NBTI
- Sequence (Q99808 whole entry): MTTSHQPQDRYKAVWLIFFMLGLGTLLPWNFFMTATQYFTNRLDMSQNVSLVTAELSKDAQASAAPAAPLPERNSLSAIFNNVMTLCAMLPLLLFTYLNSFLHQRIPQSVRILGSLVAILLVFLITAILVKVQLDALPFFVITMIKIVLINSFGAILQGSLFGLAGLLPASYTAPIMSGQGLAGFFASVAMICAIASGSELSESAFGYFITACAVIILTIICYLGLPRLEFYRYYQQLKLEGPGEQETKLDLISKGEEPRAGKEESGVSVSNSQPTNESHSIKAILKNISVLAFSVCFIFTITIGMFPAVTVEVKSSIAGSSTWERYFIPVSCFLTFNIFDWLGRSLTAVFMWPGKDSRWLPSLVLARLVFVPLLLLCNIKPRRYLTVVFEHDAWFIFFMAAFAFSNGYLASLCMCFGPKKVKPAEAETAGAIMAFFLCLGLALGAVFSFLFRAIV
- procedure.details: [3H]-NBTI binding assay
- run.conditions: 50% displacement of bound [3H]-NBTI (0.5 nM); neuronal membrane protein, 30 minutes, pH 7.4, room temperature; read-out: ED50 (the source's name)
measured.parameter: EC50 (µM)
Write the answer as a number in µM, unit excluded.

1) Cc1ccc(CNC(=O)c2ncn([C@@H]3O[C@H](CO)[C@@H](O)[C@H]3O)c2N)cc1: 225

Asked: Entry "NC(=O)c1nc(Sc2ccccc2)n([C@@H]2O[C@H](CO)[C@@H](O)[C@H]2O)c1N" has what EC50?
Given back: 71

Asked: Entry "Nc1c(C(=O)NCc2ccc(Br)cc2)ncn1[C@@H]1O[C@H](CO)[C@@H](O)[C@H]1O" has what EC50?
Given back: 32

Asked: Entry "Nc1c(C(=O)NCc2ccc([N+](=O)[O-])cc2)ncn1[C@@H]1O[C@H](CO)[C@@H](O)[C@H]1O" has what EC50?
Given back: 3

Asked: Entry Nc1c(C(=O)NC2CC3CCC2C3)ncn1[C@@H]1O[C@H](CO)[C@@H](O)[C@H]1O (stereo partly drawn) has what EC50?
Given back: 90

Asked: Entry "Nc1c(C(=O)Nc2ccccc2Cl)ncn1[C@@H]1O[C@H](CO)[C@@H](O)[C@H]1O" has what EC50?
Given back: 48

Asked: Entry "Nc1c(C(=O)NC2CCCC2)ncn1[C@@H]1O[C@H](CO)[C@@H](O)[C@H]1O" has what EC50?
Given back: 350
